- Test system: HEK-293T
- experimental-details: Multiplex assay against HEK293T
- Assay type: toxicity, cell-based
- experimental-conditions: human, 24 h, 1 µM, compound concentration 1 uM, replicate 2
Categories are assigned from the measured Population Healthy Nuclei (%) using these intervals: lower bin (below 60%), middle bin (60% to below 70%), upper bin (70% or more)

CC(C)c1noc(N2CCC(COc3ccc(-c4ccc(S(C)(=O)=O)cc4)nc3)CC2)n1	middle bin
COc1ccccc1CN[C@H]1C2CCN(CC2)[C@H]1C(c1ccccc1)c1ccccc1	middle bin
CCc1nn(CCCN2CCN(c3cccc(Cl)c3)CC2)c(=O)n1CCOc1ccccc1.Cl [NEFAZODONE HYDROCHLORIDE]	lower bin
COc1cc2ncn(-c3cc(OCc4ccccc4C(F)(F)F)c(C(N)=O)s3)c2cc1OC [GW843682X]	lower bin

[ask] Which of the defined bands does the recorded Population Healthy Nuclei (%) of Cc1ccc2c(c1)c1c(n2CCc2ccc(C)nc2)CCN(C)C1 [LATREPIRDINE] sit within?
[reply] lower bin

[ask] And `CCOC(=O)Nc1cc(-c2ccc(C)c(NS(C)(=O)=O)c2)nn2c(C)nnc12` ?
[reply] middle bin

[ask] And `COC(=O)C1=C(C)NC(C)=C(C(=O)OCCCN2CCC(c3ccccc3)(c3ccccc3)CC2)[C@H]1c1cccc([N+](=O)[O-])c1` ?
[reply] lower bin

[ask] And `CC(C)Oc1ccccc1C(=O)Nc1ccccc1C(=O)Nc1cccc(S(=O)(=O)C(F)(F)F)c1` ?
[reply] lower bin

[ask] And `O=c1[nH]c2ccccc2n1C1CCN(Cc2ccc(-c3[nH]c4cc5ncnc5cc4nc3-c3ccccc3)cc2)CC1` ?
[reply] upper bin

[ask] And `Cc1c[nH]c2nccc(Oc3c(F)cc(Nc4cc(Cl)nc(N)n4)cc3F)c12` ?
[reply] middle bin
